- System: IKK-epsilon
- Construct: gene IKBKE
- condition.set: concentration: 1 μM, replicates: in singlicate; n = 1;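 further: KINOMEscan kinase panel screen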
Short version: %Inh at least 7% is rule met, less is rule not met.

INPUT: Please indicate if the recorded %Inh for O=C(Nc1ccccc1F)NC1CCN(c2ccnc(Nc3ccc(F)cc3)n2)C1 (centres unmarked) meets or exceeds 7%.
OUTPUT: rule not met

INPUT: // same read-out, input: "Cc1ccc(NC(=O)c2cccc(C#N)c2)cc1-c1ccc(C(=O)Nc2ccncc2)cc1"
OUTPUT: rule met

INPUT: // same read-out, input: COc1ccc(Nc2nccc(N3CCC(NC(=O)c4cccc(NC(C)=O)c4)C3)n2)cc1 (centres unmarked)
OUTPUT: rule met

INPUT: // same read-out, input: "C[C@H]1CC[C@@H](C(=O)Nc2ccccc2)CN1c1cc(-c2ccc3c(N)n[nH]c3c2)nc(N)n1"
OUTPUT: rule met

INPUT: // same read-out, input: "CN1CCC(n2cnc(-c3ccc(F)cc3)c2-c2ccnc(NC3CCNCC3)n2)CC1"
OUTPUT: rule not met

INPUT: // same read-out, input: "COc1ccc(-c2oc3ncnc(N)c3c2-c2ccc(OC)cc2)cc1"
OUTPUT: rule not met

INPUT: // same read-out, input: "CC(C)(C)c1ccc(-n2cnc3c(N)ncnc32)cc1"
OUTPUT: rule met

====

- Test system: PCTK3
- Construct: gene CDK18
- condition.set: concentration: 1 μM, replicates: in singlicate; n = 1
Would you mind telling me the reported %Inh of each entry?
Give just the number in %; leave the unit off.

INPUT: Need %Inh of "OCCOCCn1ccc2ncnc(Nc3ccc(Oc4cccc(Cl)c4)c(Cl)c3)c21" , thanks.
OUTPUT: 6

INPUT: // same read-out, input: "Cl.Fc1ccccc1COc1ccc(Nc2ncnc3ccc(-c4nnc(C(F)(F)F)o4)cc23)cc1Cl"
OUTPUT: 17

INPUT: // same read-out, input: "CCc1nc(-c2cccc(C)c2)c(-c2ccnc(NC(=O)c3ccccc3)c2)s1"
OUTPUT: 1

INPUT: // same read-out, input: "CCc1nc(-c2cccc(N(C)S(=O)(=O)c3ccccc3)c2)c(-c2ccnc(Nc3ccc(N4CCN(C(C)=O)CC4)nc3)n2)s1"
OUTPUT: 4

INPUT: // same read-out, input: "COc1cc2ncnc(Nc3ccc(OCc4ccccc4Br)c(Cl)c3)c2cc1OC.Cl"
OUTPUT: 0

INPUT: // same read-out, input: "COc1ccc(-c2oc3ncnc(N)c3c2-c2ccc(OC)cc2)cc1"
OUTPUT: 14

INPUT: // same read-out, input: "Cc1ccc(NC(=O)c2cccc(C#N)c2)cc1-c1ccc(C(=O)Nc2ccncc2)cc1"
OUTPUT: 18

INPUT: // same read-out, input: "Nc1nc(-c2ccc3c(N)n[nH]c3c2)cc(N2CCCCC2)n1"
OUTPUT: 9

INPUT: // same read-out, input: "Cn1cc(-c2ccc3c(c2)CCN3C(=O)Cc2cccc(C(F)(F)F)c2)c2c(N)ncnc21"
OUTPUT: 0

INPUT: // same read-out, input: "O=C(c1ccc(-c2cc(-c3c[nH]nc3-c3ccccn3)ccn2)cc1)N1CCCC1"
OUTPUT: 3

====

- Tested on: GAK
- condition.set: concentration: 1 μM, replicates: in singlicate; n = 1
Would you mind telling me the reported %Inh of each entry?
Give just the number in %; leave the unit off.

INPUT: Need %Inh of "Fc1ccc(Nc2nccc(-c3c(-c4ccc(Cl)cc4)nn4ncccc34)n2)cc1F" , thanks.
OUTPUT: 14

INPUT: // same read-out, input: "Clc1cc(Nc2ncnc3cc[nH]c23)ccc1OCc1ccccn1"
OUTPUT: 3

INPUT: // same read-out, input: "N#Cc1ccc(Oc2ccc(Nc3ncnc4cc[nH]c34)cc2Cl)cc1"
OUTPUT: 17

INPUT: // same read-out, input: "COC(=O)c1cccc(NC(=O)NCCNc2ccnc(Nc3ccc(F)cc3)n2)c1"
OUTPUT: 0

INPUT: // same read-out, input: "NC(=O)c1sc(-n2cnc3ccccc32)cc1OCc1ccccc1F"
OUTPUT: 24
